pEC50: recorded values
# Tested on: HCV GT1a replicon
# assay name: HCV replicon assay (Huh-7 cells stably transfected with HCV GT1a replicon; luciferase or NEO gene qPCR readout)
# Assay type: cell-based
# condition summary: Hepatitis C virus, HCV 1a genotype replicon, 72 hours
Hey, just a heads up that pEC50 is the negative log base 10 of the concentration in molar.

molecule	tested target	pEC50
COC(=O)N[C@H](C(=O)N1CCCC[C@H]1c1ncc(-c2ccc(-c3ccc(-c4ccc5nc([C@@H]6CCCCN6C(=O)[C@@H](NC(=O)OC)C(C)C)[nH]c5c4)c4c3C3CCC3C4)cc2)[nH]1)C(C)C (stereo partly drawn) [Example 13]	HCV GT1a replicon	9.38
CC[C@H](C)[C@H](NC(=O)OC)C(=O)N1CCC[C@H]1C1=Nc2ccc(-c3ccc(-c4ccc5nc([C@@H]6CCCN6C(=O)[C@@H](NC(=O)OC)C(C)C)[nH]c5c4)c4c3CC3CCCC43)cc2S(=O)(=O)N1 (stereo partly drawn) [Example 31]	HCV GT1a replicon	10.08
COC(=O)NC(C(=O)N1CCCC1c1nc2ccc(-c3ccc(-c4ccc(-c5cnc(C6CC7CC7N6C(=O)C(NC(=O)OC)C(C)C)[nH]5)cc4)c4c3CC3CCC43)cc2[nH]1)C(C)C (stereo not drawn) [Example 37]	HCV GT1a replicon	10.20
COC(=O)N[C@H](C(=O)N1CC(C)(C)C[C@H]1c1ncc(-c2ccc(-c3ccc(-c4ccc5nc([C@@H]6CC(C)(C)CN6C(=O)[C@@H](NC(=O)OC)C(C)C)[nH]c5c4)c4c3C3CCC3C4)cc2)[nH]1)C(C)C (stereo partly drawn) [Example 15]	HCV GT1a replicon	9.42

Report pEC50, nothing else, for this molecule: COC(=O)N[C@H](C(=O)N1CCC[C@H]1c1ncc(-c2ccc(-c3ccc(-c4ccc5nc([C@@H]6CCCN6C(=O)[C@@H](NC(=O)OC)C(C)C)[nH]c5c4)c4c3CC3CCC43)s2)[nH]1)C(C)C (stereo partly drawn) [Example 7]
10.03

Give recorded pEC50. COC(=O)N[C@H](C(=O)N1CCC[C@H]1c1ncc(-c2ccc(-c3ccc(-c4ccc5nc([C@@H]6CCCN6C(=O)[C@@H](NC(=O)OC)C(C)C)[nH]c(=O)c5c4)c4c3C3CC(F)(F)C3C4)cc2)[nH]1)C(C)C (stereo partly drawn) [Example 28]
10.66

Quick one: give measured pEC50 for COC(=O)N[C@H](C(=O)N1CC(F)(F)C[C@H]1c1ncc(-c2ccc(-c3ccc(-c4ccc5[nH]c([C@@H]6CC(F)(F)CN6C(=O)[C@@H](NC(=O)OC)C(C)C)nc5c4)c4c3C3CCC3C4)cc2)[nH]1)C(C)C (stereo partly drawn) [Example 12]
10.10

Using known records, supply pEC50 for COC(=O)N[C@H](C(=O)N1CCC[C@H]1c1nc2ccc(-c3ccc(-c4ccc(-c5cnc([C@@H]6CC7CC7N6C(=O)[C@@H](NC(=O)OC)C(C)C)[nH]5)cc4)c4c3CC3CCC43)cc2[nH]1)C(C)C (stereo partly drawn) [Example 3]
10.06

Recall and state the measured pEC50 for COC(=O)N[C@H](C(=O)N1CCC[C@H]1c1ncc(-c2ccc(-c3ccc(-c4ccc5nc([C@@H]6CCCN6C(=O)[C@@H](NC(=O)OC)C(C)C)[nH]c5c4)c4c3C3CCC3C4)c3ccccc23)[nH]1)C(C)C (stereo partly drawn) [Example 23] .
9.35
